Catalogue of Ratio readings, one per entry.
ASSAY SYSTEM: Adrenergic receptor alpha (Rattus norvegicus) (UniProt P15823+P23944+P43140+P22086+P19328+P22909)
PROTOCOL: Ratio of pA2 values at alpha-1 and alpha-2 adrenergic receptors.
Type: protein assay
MEASURE NAME: Ratio

smiles_repr=CCS(=O)(=O)N(CCNS(C)(=O)=O)[C@@H]1CCN2CCc3ccccc3[C@@H]2C1 measure_name=Ratio test_result=490
smiles_repr=CS(=O)(=O)NCCN([C@@H]1CCN2CCc3ccccc3[C@@H]2C1)S(=O)(=O)c1ccc(F)cc1 measure_name=Ratio test_result=100
smiles_repr=CS(=O)(=O)NCCN([C@@H]1CCN2CCc3ccccc3[C@@H]2C1)S(=O)(=O)c1ccccc1 measure_name=Ratio test_result=91
smiles_repr=CS(=O)(=O)N(CCNS(=O)(=O)c1ccccc1)[C@@H]1CCN2CCc3ccccc3[C@@H]2C1 measure_name=Ratio test_result=1
